cytotoxicity values for the compounds below.
protocolSummary: Cytotoxicity evaluation by MTT-assay
condition: mouse, mouse fibroblast (3T3) cells
API: value field is a number in %; no unit string.

Example cases with answers are listed next.
>>> resultvalue("O=[N+]([O-])c1ccc2nc(-c3cccc(O)c3O)[nH]c2c1")
35.9
>>> resultvalue("O=[N+]([O-])c1ccc2nc(-c3cc(O)ccc3O)[nH]c2c1")
21.1
>>> resultvalue("O=[N+]([O-])c1ccc2nc(-c3ccsc3)[nH]c2c1")
19.7

Query compound follows.
Query O=[N+]([O-])c1ccc(-c2nc3cc([N+](=O)[O-])ccc3[nH]2)cc1 yields cytotoxicity of 45.2
